meta.source: patent EP4588489A1

This listing pairs binders with measured A431 IC50/µg/mL (in vitro cell viability assay).
- assay-system: T1, TROP2 (UniProt P09758 27-323, limits assumed)
- T1 sequence (looked up): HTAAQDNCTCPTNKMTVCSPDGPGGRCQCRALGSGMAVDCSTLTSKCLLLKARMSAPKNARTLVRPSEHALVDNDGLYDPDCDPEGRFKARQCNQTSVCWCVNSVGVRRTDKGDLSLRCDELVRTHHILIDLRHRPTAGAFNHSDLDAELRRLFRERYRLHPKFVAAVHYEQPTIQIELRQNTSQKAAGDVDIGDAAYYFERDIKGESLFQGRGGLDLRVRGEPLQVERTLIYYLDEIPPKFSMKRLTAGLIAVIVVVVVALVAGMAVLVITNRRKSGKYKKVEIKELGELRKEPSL
- procedure-details: cell-based or functional assay
Express the reported value numerically, then name its unit.

Would you please look over these solved cases?
# binder, endpoint-value
records = [
    ("ADC04 (hRS7 conjugated to CPD2) (antibody, human IgG1, kappa, V domains shown, linker-drug CPD2 on cysteines of reduced interchain disulfides; average DAR 3.92) VH: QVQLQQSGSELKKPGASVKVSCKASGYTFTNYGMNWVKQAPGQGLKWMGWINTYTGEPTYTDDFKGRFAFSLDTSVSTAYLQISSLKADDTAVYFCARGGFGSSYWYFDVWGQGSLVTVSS VL: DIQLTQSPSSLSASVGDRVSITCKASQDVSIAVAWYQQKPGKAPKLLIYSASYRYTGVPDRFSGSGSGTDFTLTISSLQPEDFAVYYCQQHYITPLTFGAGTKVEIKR", "0.048 µg/mL"),
    ("ADC03 (hRS7 conjugated to CPD1) (antibody, human IgG1, kappa, V domains shown, linker-drug CPD1 on cysteines of reduced interchain disulfides; average DAR 3.82) VH: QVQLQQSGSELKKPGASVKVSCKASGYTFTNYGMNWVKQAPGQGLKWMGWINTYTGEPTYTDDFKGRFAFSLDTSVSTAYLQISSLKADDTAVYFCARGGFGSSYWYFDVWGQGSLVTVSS VL: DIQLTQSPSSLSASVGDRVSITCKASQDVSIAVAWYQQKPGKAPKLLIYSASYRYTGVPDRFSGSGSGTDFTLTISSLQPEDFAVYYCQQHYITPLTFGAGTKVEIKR", "0.074 µg/mL"),
    ("ADC02 (hRS7 conjugated to GGFG-Dxd) (antibody, human IgG1, kappa, V domains shown, linker-drug GGFG-Dxd on cysteines of reduced interchain disulfides; average DAR 3.69) VH: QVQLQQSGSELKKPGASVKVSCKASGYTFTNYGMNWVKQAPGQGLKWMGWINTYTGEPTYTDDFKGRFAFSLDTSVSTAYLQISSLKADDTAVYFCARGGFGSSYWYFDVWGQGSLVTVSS VL: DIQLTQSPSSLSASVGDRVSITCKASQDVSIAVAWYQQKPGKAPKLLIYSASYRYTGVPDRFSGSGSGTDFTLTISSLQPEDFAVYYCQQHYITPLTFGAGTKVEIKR", "0.057 µg/mL"),
]

Asked: Quick one: A431 IC50/µg/mL (in vitro cell viability assay) for ADC01 (Datopotamab conjugated to GGFG-Dxd) (antibody, human IgG1, kappa, V domains shown, linker-drug GGFG-Dxd on cysteines of reduced interchain disulfides; average DAR 3.73) VH: QVQLVQSGAEVKKPGASVKVSCKASGYTFTTAGMQWVRQAPGQGLEWMGWINTHSGVPKYAEDFKGRVTISADTSTSTAYLQLSSLKSEDTAVYYCARSGFGSSYWYFDVWGQGTLVTVSS VL: DIQMTQSPSSLSASVGDRVTITCKASQDVSTAVAWYQQKPGKAPKLLIYSASYRYTGVPSRFSGSGSGTDFTLTISSLQPEDFAVYYCQQHYITPLTFGQGTKLEIKR ?
Given back: 0.11 µg/mL
